Listing: IC50 of selected compounds
target: MCR-4 (Homo sapiens); construct: expressed in transfected cells; host or cells: HEK 293; test: Melanocortin receptor binding assay, competition with 125I-HP 467, HEK 293 cells expressing hMCR-4; details: TRG 2406 and TRG 2407 libraries; inhibition of binding of 125I-HP 467; read-out: MC-4 IC50
Sequence (P32245 whole entry): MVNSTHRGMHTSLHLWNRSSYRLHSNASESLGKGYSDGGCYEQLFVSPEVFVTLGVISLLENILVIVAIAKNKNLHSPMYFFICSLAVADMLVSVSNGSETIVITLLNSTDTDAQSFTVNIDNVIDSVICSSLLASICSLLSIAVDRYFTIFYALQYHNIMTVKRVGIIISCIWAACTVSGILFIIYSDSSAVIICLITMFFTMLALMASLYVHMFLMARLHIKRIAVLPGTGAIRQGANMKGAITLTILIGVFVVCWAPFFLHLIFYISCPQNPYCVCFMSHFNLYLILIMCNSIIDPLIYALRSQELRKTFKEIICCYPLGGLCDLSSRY
measuredEndpoint: IC50 (µM)

>>> print(df.to_string())
                                   compound  measuredendpoint  reported
0  CCn1c2ccccc2c2cc(C3C(CNCc4ccccc4O)c4ccccc4CN3CCN)ccc21 (stereo not shown) [TRG 2406-20]              IC50       3.3
1  CCNc1ccc(C2C(CNCc3ccccc3OCC)c3ccccc3CN2CCCCC(CN)NC)cc1 (stereo not shown) [TRG 2407-55]              IC50      14.9
2  CNC(CN)CCCCN1Cc2ccccc2C(CNCc2ccccc2O)C1c1cccn1C (stereo not shown) [TRG 2406-1]              IC50      5.85
3  CNC(CN)CCCCN1Cc2ccccc2C(CN)C1c1ccc(Cl)cc1Cl (stereo not shown) [TRG 2407-39]              IC50      0.11

* * *

target: MCR-1 (Homo sapiens, UniProt Q01726); construct: expressed in transfected cells; host or cells: HEK 293; assay: Melanocortin receptor binding assay, competition with 125I-HP 467, HEK 293 cells expressing hMCR-1; conditions: displacement of 125I-HP 467 at 10 μM isoquinoline compound; second of duplicate
Sequence (Q01726 whole entry): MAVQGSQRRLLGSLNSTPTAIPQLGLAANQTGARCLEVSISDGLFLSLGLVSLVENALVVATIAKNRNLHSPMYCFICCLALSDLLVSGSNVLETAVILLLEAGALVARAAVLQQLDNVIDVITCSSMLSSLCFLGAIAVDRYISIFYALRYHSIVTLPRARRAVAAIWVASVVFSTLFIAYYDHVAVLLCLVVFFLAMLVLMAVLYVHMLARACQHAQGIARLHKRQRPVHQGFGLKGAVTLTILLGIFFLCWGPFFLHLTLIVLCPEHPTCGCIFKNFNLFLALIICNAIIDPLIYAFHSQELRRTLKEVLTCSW
Listing: % Disp. MC-1 10 μM of selected compounds
measuredEndpoint: % Disp. MC-1 10 μM

                                   compound                       systemundertest    measuredendpoint  reported
0  CNC(CN)CN1Cc2ccccc2C(CNC2CCCCC2)C1c1cnc2ccccc2c1 (stereo not drawn) [TRG 2405-142]  MCR-1 (Homo sapiens, UniProt Q01726)  % Disp. MC-1 10 μM     45.1%
1  CNC(CN)CN1Cc2ccccc2C(CNC2CCCCC2)C1c1ccc(C)s1 (stereo not drawn) [TRG 2405-168]  MCR-1 (Homo sapiens, UniProt Q01726)  % Disp. MC-1 10 μM     24.1%
2  CNC(CN)CN1Cc2ccccc2C(CNC2CCCCC2)C1c1cc(O)cc(O)c1 (stereo not drawn) [TRG 2405-119]  MCR-1 (Homo sapiens, UniProt Q01726)  % Disp. MC-1 10 μM     39.8%
3  NCCN1Cc2ccccc2C(CNC2CCCCC2)C1c1ccco1 (stereo not drawn) [TRG 2405-17]  MCR-1 (Homo sapiens, UniProt Q01726)  % Disp. MC-1 10 μM     32.8%
4  NCCN1Cc2ccccc2C(CNC2CCCCC2)C1c1ccccn1 (stereo not drawn) [TRG 2405-21]  MCR-1 (Homo sapiens, UniProt Q01726)  % Disp. MC-1 10 μM     42.5%
5  Cc1ccc(C2C(CNC3CCCCC3)c3ccccc3CN2CCN)cc1 (stereo not drawn) [TRG 2405-69]  MCR-1 (Homo sapiens, UniProt Q01726)  % Disp. MC-1 10 μM       49%
6  CNC(CN)CN1Cc2ccccc2C(CNC2CCCCC2)C1c1cccc(Oc2ccccc2)c1 (stereo not drawn) [TRG 2405-140]  MCR-1 (Homo sapiens, UniProt Q01726)  % Disp. MC-1 10 μM     67.8%
7  CNC(CN)CN1Cc2ccccc2C(CNC2CCCCC2)C1c1cccc(OC)c1 (stereo not drawn) [TRG 2405-135]  MCR-1 (Homo sapiens, UniProt Q01726)  % Disp. MC-1 10 μM     39.7%
8  CNC(CN)CN1Cc2ccccc2C(CNC2CCCCC2)C1c1cc(C)c(O)c(C)c1 (stereo not drawn) [TRG 2405-122]  MCR-1 (Homo sapiens, UniProt Q01726)  % Disp. MC-1 10 μM     40.7%
